I'd be grateful if you could share measured GI50 for these entries.
Tested on: WM793
assay-method-text: Antiproliferative activity against human WM793 cells incubated for 72 hrs and measured by MTT assay
Assay type: functional
The figure you give is taken to be in µM; do not add the unit.

GI50 reported for this compound Cc1ccc(Cl)cc1-n1nnc(C(=O)Nc2ccc(SC#N)cc2)c1C : 72.8

Form field GI50, entry COc1cccc2c1C(=O)c1c(O)c3c(c(O)c1C2=O)C[C@@](O)(C(=O)CO)C[C@@H]3O[C@H]1C[C@H](N)[C@H](O)[C@H](C)O1 [DOXORUBICIN] : 0.9

The measured GI50 associated with COCc1c(C(=O)Nc2ccc(SC#N)cc2)nnn1-c1ccc(C)cc1 reads 93.3

// recorded GI50 for Cc1ccc(-n2nnc(C(=O)Nc3ccc(SC#N)cc3)c2C)cc1C : 72.4

GI50 for CCCc1c(C(=O)Nc2ccc(SC#N)cc2)nnn1-c1ccccc1 is 65.7
